Quick list: IC50 per entry.
subject_of_test: PAR2 (HT-29 cells) (Homo sapiens, UniProt P55085)
Construct: host or cells: HT-29
Sequence (P55085 26-397): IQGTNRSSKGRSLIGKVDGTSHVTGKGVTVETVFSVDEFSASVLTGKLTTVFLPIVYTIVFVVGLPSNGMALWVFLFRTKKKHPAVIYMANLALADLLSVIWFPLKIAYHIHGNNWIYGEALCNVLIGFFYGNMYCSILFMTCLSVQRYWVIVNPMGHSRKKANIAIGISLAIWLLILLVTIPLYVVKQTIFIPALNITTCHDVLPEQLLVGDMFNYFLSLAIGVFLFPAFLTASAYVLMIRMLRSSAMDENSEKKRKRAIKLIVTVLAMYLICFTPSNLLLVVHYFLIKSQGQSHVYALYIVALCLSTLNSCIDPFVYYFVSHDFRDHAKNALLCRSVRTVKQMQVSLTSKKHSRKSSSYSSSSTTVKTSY
procedure_text: Ca FLIPR TETRA assay, ANTAGONIST mode, activator 3.1 U/mL trypsin
Assay type: cell-based
details: HT-29 cells; activator 3.1 U/mL trypsin; Method A: maximal concentration of antagonist 0.1, 1 or 2 μM
Method: Protocol for Testing PAR2 Compounds in ANTAGONIST Mode Using the Ca FLIPR^TETRA Assay (384 Well). […] A first read was performed to determine whether the test compounds on their own can activate Ca^2+ responses. The cells were incubated with the compounds for 30 min at r. t. and then read in ANTAGONIST mode in the same plate by stimulating with 6.2 uL of a fixed concentration of the activator: final concentrations 8 μM SLIGKV, 1 U/mL Thrombin, 3.1 U/mL trypsin, or 0.6 μM UTP.
recorded_endpoint: IC50 (nM)

- Cn1nccc1S(=O)(=O)N1CCN(C(=O)c2cc3nc(-c4ccc(Cl)c(F)c4)cc(C(C)(C)C)c3o2)C(C)(C)C1=O [Example I-342]: 90
- Cc1oc(C2CCN(C(=O)c3cc4nc(C5CCC(C)(C)CC5)cc(C(C)(C)C)c4o3)C(C)(C)C2)nc1C(=O)O (stereo not shown) [Example I-425]: 0.4
- CC(C)(C)c1cc(-c2ccc(Cl)c(F)c2)nc2cc(C(=O)N3CCN(c4cc(C(F)(F)F)cnc4C(=O)O)CC3(C)C)oc12 [Example I-515]: 21
- CC(C)(C)c1cc(-c2ccc(Cl)c(F)c2)nc2cc(C(=O)N3CCN(C(=O)[C@@H]4CC[C@H](C(=O)O)C4)CC3(C)C)oc12 [Example I-512]: 18
- CC(C)(C)c1cc(C2CC3(CCC3)C2)nc2cc(C(=O)N3CCN(c4ccc(C(=O)O)cn4)CC3(C)C)oc12 [Example I-443]: 0.6
- CC(CC(=O)N1CCN(C(=O)c2cc3nc(-c4ccc(Cl)c(F)c4)cc(C(C)(C)C)c3o2)C(C)(C)C1)C(=O)O (single isomer, unassigned) [Example I-514]: 1.1
- CC(C)(C)c1cc(-c2ccc(Cl)cc2)nc2cc(C(=O)N3CCN(c4nccc(C(=O)O)n4)CC3(C)C)oc12 [Example I-457]: 0.9
- CN1CCN(C(=O)c2cc3nc(-c4ccc(Cl)c(F)c4)cc(C(C)(C)C)c3o2)C(C)(C)CC1=O [Example I-522]: 2.6
- CC(C)(CC(=O)N1CCN(C(=O)c2cc3nc(-c4ccc(Cl)c(F)c4)cc(C(C)(C)C)c3o2)C(C)(C)C1)C(=O)O [Example I-417]: 0.4
- CC(C)(C)c1cc(-c2ccc(Cl)c(F)c2)nc2cc(C(=O)N3CCN(S(=O)(=O)NC4CC4)CC3(C)C)oc12 [Example I-542]: 28
- CC(C)(C)c1cc(-c2ccc(Cl)cc2)nc2cc(C(=O)N3CCN(c4ccn[nH]4)C(=O)C3(C)C)oc12 [Example I-407]: 17
- CC(C)(C)c1cc(-c2ccc(Cl)c(F)c2)nc2cc(C(=O)N3CCN(c4ccccn4)C(=O)C3(C)C)oc12 [Example I-329]: 13
- CC(C)(C)c1cc(-c2ccc(Cl)c(F)c2)nc2cc(C(=O)N3CCN(C(=O)[C@@H]4CCCC[C@@H]4C(=O)O)CC3(C)C)oc12 [Example I-500]: 0.5
